These measurements were taken from ChEMBL document CHEMBL3865816.

- System: Escherichia coli
- Experiment description: Antibacterial activity against Escherichia coli NCIM 2688 measured after 8 hrs by spectrophotometric method
- Assay type: functional
- Condition info: NCIM 2688, 8 h
Entries and their measured IC50 follow.
Reply numerically in µg/mL, unit not repeated.

// below: answered compounds
Compound: COc1ccc(NC(=S)NC[C@H]2CN(c3ccc(N4CC5(COC5)C4)c(F)c3)C(=O)O2)cc1
IC50, µg/mL: 1.1
--
Compound: NC[C@H]1CN(c2ccc(N3CC4(COC4)C3)c(F)c2)C(=O)O1
IC50, µg/mL: 0.57

Okay, next one:
Qu. Reported IC50, compound O=C1OC2(CCNC2)CN1c1ccc(N2CCOCC2)c(F)c1 (stereo not given) : ____
Ans. 4.44

* * *

- Test system: Escherichia coli
- Experiment description: Antibacterial activity against Escherichia coli NCIM 2688 measured after 8 hrs by spectrophotometric method
- Type: functional
- Condition info: NCIM 2688, 8 h
Measured metric: IC50

Molecule: CC(=O)OCC(=O)NC[C@H]1CN(c2ccc(N3CC4(COC4)C3)c(F)c2)C(=O)O1
IC50: > 100 µg/mL
//
Molecule: O=C1O[C@@H](CNC(=S)Nc2ccc(Cl)cc2)CN1c1ccc(N2CC3(COC3)C2)c(F)c1
IC50: > 100 µg/mL
//
Molecule: O=C1O[C@@H](CNS(=O)(=O)c2cc([N+](=O)[O-])ccc2Cl)CN1c1ccc(N2CC3(COC3)C2)c(F)c1
IC50: > 100 µg/mL

Proceeding to the next compound to report its IC50.
Qu. # get_value(readout='IC50', item= CC(C)(C)NC(=S)NC[C@H]1CN(c2ccc(N3CC4(COC4)C3)c(F)c2)C(=O)O1 )
Ans. 1.38 µg/mL

* * *

A collection of molecules and their measured MIC
- Test system: Mycobacterium tuberculosis
- Experiment description: Antitubercular activity against dormant stage Mycobacterium tuberculosis H37Ra measured after 12 days by XTT assay
- Type: functional
- Condition info: 288 h

Study these solved cases before continuing.
Molecule: NC[C@H]1CN(c2ccc(N3CC4(COC4)C3)c(F)c2)C(=O)O1
Subject of test: Mycobacterium tuberculosis
MIC: 11.3 µg/mL

Molecule: O=C(NC[C@H]1CN(c2ccc(N3CC4(COC4)C3)c(F)c2)C(=O)O1)c1ccc(C(F)(F)F)cc1
Subject of test: Mycobacterium tuberculosis
MIC: > 100 µg/mL

Qu. Bench note: what MIC did O=C1OC2(CCNC2)CN1c1ccc(N2CCOCC2)c(F)c1 (centres undefined) show?
Ans. > 100 µg/mL

Qu. Dear colleague, I am looking for the recorded MIC of the following molecule: CC(C)NC(=S)NC[C@H]1CN(c2ccc(N3CC4(COC4)C3)c(F)c2)C(=O)O1
Ans. > 100 µg/mL

* * *

- Tested on: Mycobacterium tuberculosis
- Experiment description: Antitubercular activity against dormant stage Mycobacterium tuberculosis H37Ra measured after 12 days by XTT assay
- Type: functional
- Condition info: 288 h
Measured metric: IC50

Here are 3 compounds together with their reported answers.
Compound: O=C1O[C@@H](CNC(=S)Nc2ccccc2F)CN1c1ccc(N2CC3(COC3)C2)c(F)c1
IC50: 22.8 µg/mL
--
Compound: CC(=O)N1CCC2(C1)CN(c1ccc(N3CCOCC3)c(F)c1)C(=O)O2 (stereo unspecified)
IC50: > 100 µg/mL
--
Compound: O=C1O[C@@H](CNS(=O)(=O)c2ccc(Cl)s2)CN1c1ccc(N2CC3(COC3)C2)c(F)c1
IC50: > 100 µg/mL

Qu. Returns the measured IC50 for the input compound. Input: O=C1O[C@@H](CNS(=O)(=O)c2cccc(C(F)(F)F)c2)CN1c1ccc(N2CC3(COC3)C2)c(F)c1
Ans. > 100 µg/mL

Qu. What IC50 value was documented for this compound, O=C(NC[C@H]1CN(c2ccc(N3CC4(COC4)C3)c(F)c2)C(=O)O1)c1cccnc1 ?
Ans. > 100 µg/mL

Qu. Name the recorded IC50 for OC1(CNc2ccc(N3CCOCC3)c(F)c2)CCN(Cc2ccccc2)C1 (stereo unspecified) .
Ans. > 100 µg/mL
